Record form. Attribute: IC50. Fill in for each entry.
Test Target: Rat C17,20-lyase (Rattus norvegicus, UniProt P11715)
Sequence (P11715 1-507): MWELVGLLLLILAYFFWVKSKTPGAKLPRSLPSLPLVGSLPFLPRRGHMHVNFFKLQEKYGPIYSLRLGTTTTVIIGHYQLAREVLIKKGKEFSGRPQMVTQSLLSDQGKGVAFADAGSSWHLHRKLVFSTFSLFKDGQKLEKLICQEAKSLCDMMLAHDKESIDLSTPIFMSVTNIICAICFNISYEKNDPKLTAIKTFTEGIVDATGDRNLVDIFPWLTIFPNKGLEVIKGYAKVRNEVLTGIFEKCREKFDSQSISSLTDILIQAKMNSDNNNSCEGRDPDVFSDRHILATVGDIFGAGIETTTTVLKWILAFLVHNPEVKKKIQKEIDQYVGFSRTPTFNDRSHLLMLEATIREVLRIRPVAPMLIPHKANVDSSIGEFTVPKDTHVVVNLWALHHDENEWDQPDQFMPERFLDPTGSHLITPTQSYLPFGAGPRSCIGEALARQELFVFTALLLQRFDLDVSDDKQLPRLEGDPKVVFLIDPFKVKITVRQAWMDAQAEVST
Give just the number in nM; leave the unit off.

Documented IC50 of `COc1ccncc1-c1nc(-c2ccc(C)cc2C)cs1` : 30

Form: molecule = `Fc1ccc(-c2nc(-c3cccnc3)cs2)cc1` ; IC50 = 14

Recorded result, `COc1cccc(-c2csc(-c3cccnc3)n2)c1` , IC50: 33

Cited source for all entries: patent US7067537B2
